test system: LOX IMVI melanoma; assay: NCI-60 one-dose screen, 48 h (100 = growth as untreated, 0 = no growth, -100 = all killed); conditions: 10 µM unless noted
About 83,000 compounds went through this panel and 20% of them were active in at least one assay; those are over-represented in the sample as a whole. The source made the active and inactive calls. How the source made its calls: active means growth percent below 10; inactive means the rest.
So I've got a bunch of molecules here, and I need their growth values.

Answer with the recorded growth for the molecule listed here: `COc1ccc(-c2nc(Nc3nc4ccccc4[nH]3)nc(N)c2C#N)cc1`
93.9% (inactive)

Give the reported value of growth for this record: `C=CCNCCC#N`
59.5% (inactive)

Give recorded growth. C/C=C(/C)C(=O)OC1C=C(CO)C(=O)C(OC(=O)/C(C)=C\C)C1C(C)C (configuration not stated)
-92.5% (active)

Write down growth measured for item `CCCCCSc1ccc2nc(NC(=O)OCC)sc2c1`
38.4% (inactive)

Please give measured growth of the following entry: `CCN(CC)CCNc1ncnc2c1cnn2-c1ccc(Cl)cc1`
60% (inactive)

Note down growth recorded for CC1(C)CC(=O)C2=C(C1)Oc1nc(N)c(C#N)c(N)c1C2c1ccc(F)cc1 (configuration not stated)
96.6% (inactive)

Complete the entry with growth for `O=C(N/N=C/c1ccccc1Cl)c1cccc2ccccc12`
103% (inactive)

Give a short answer stating reported growth for CC1Cc2cc(F)ccc2-n2cccc21 (configuration not stated) .
91.7% (inactive)

Supply reported growth belonging to this molecule: `COC(=O)[C@H](Cc1cn(C)cn1)NC(=O)[C@H](CC(=O)OCc1ccccc1)NC(=O)Nc1cc(C(F)(F)F)cc(C(F)(F)F)c1`
-85.3% [100 µM] (active)

Report measured growth; entry is `O=C1C=C(OCC=C(C(F)(F)F)C(F)(F)F)c2ccccc2C1=O`
-62.4% (active)

Provide only the value of recorded growth for `O=c1[nH]c2cc(O)ccc2n2cc3c(F)cccc3c12`
36.8% (inactive)

Give reported growth value for `COc1ccc(CN2C(=O)/C(=C\C(=O)c3ccc(OCCN4CCCC4)cc3)c3ccccc32)cc1`
31.7% (inactive)

For the molecule COc1cc2cc3cc4cc(OC)c(OC)cc4c(C)[n+]3cc2cc1OC (tested in a mixture with another compound) , give its measured growth value.
84.4% (inactive)

Please supply the value of reported growth for the item O=C(O)CS(=O)c1ccc(Cl)cc1 (configuration not stated)
91% (inactive)

Read the entry `O=Nc1ccc(O)c2ccccc12` and write its reported growth.
-1.33% (active)

Answer with the recorded growth for the molecule listed here: `O=C(/C=C\c1ccccc1Cl)c1ccccc1`
82.1% (inactive)

Give recorded growth. COc1ccc2cc(C(C)C(=O)Nc3ccc(S(=O)(=O)Nc4cc(C)on4)cc3)ccc2c1 (configuration not stated)
96.2% (inactive)

Tell us which growth value is on record for `O=C(CN1C(=O)NC(c2ccccc2)(c2ccccc2)C1=O)c1ccc(N2CCCC2)cc1`
74.2% (inactive)

Provide growth value for the following molecule: `CCOc1ccc(N(C)c2ccc(/C=C/C3=[N+](C)c4ccccc4C3(C)C)cc2)cc1`
-48.1% (active)

In one line, give reported growth of the entry `COc1cc(/C(=C2/O[C@@H]([C@H]3COC(C)(C)O3)[C@H]3OC(C)(C)O[C@@H]23)c2ccc3c(c2)OCO3)cc(OC)c1OC` .
47% (inactive)

Supply recorded growth for `COc1ccc(/C=C(/C(=O)N2CCCCC2)c2cc(OC)c(OC)c(OC)c2)cc1` here.
36.5% (inactive)

Item `CCCCCCC(C(=O)OCC)(C(=O)OCC)C1CCCCCC1` : provide growth
101% (inactive)
